Data provenance is ChEMBL document CHEMBL1201862.

Parameter: GI50. Scope: all listed entries.
Tested on: NCI-H522
EXPERIMENT DESCRIPTION: NCI tumour cell line growth inhibition, 48 h
Activity calls are given as the source filed them. No stated cut-off is given here; in the data, active = GI50 up to about 1.1 µM and inactive = higher.

Some entries whose results are on file:
Query block: Recorded GI50 for "CC(C(=O)[O-])S(=O)(=O)O.CCc1c2cc(OC)c(OC)cc2cc2c3cc(OC)c(OC)cc3cc[n+]12" , please?
Result block: 3.09 µM (inactive)

Query block: What would you report for "N#C/C(=C\c1ccc(Br)cc1)c1nc(-c2cc3ccccc3oc2=O)cs1" ?
Result block: 7.98 µM (inactive)

Query block: What would you report for "Oc1cc(Br)cc2cc(Br)cnc12" ?
Result block: 2.3 µM (inactive)

Query block: What would you report for C[C@@H](CC(=O)OCc1ccccc1)OC1OC(COC(=O)C(C)(C)C)C(OC(=O)C(C)(C)C)C(OC(=O)C(C)(C)C)C1OC(=O)C(C)(C)C (stereo partly specified) ?
Result block: > 100 µM (inactive)

Query block: What would you report for Nc1ncnc2c1ncn2C1(CO)OC(CO)C(O)C1O (stereo unspecified) ?
Result block: > 100 µM (inactive)

Query block: What would you report for COc1cc2c(cc1OC)C1c3ccccc3CCN1CC2 (stereo unspecified) ?
Result block: > 100 µM (inactive)

Query block: What would you report for COc1ccc(-c2cc(C(O)C3CCCCN3)c3ccccc3n2)cc1 (stereo unspecified) ?
Result block: 7.05 µM (inactive)

Query block: What would you report for "O=C(O)CCCCCCCCC(=O)O" ?
Result block: > 500 µM (inactive)

Continuing:
Query block: Recorded GI50 for "COc1cc(/C=C2/CCS(=O)(=O)c3ccc(C)cc3C2=O)cc(OC)c1OC" , please?
Result block: 3.39 µM (inactive)

Query block: What would you report for O/N=C(\c1nc2ccc(Cl)cc2nc1O)C(O)c1ccc(Cl)cc1Cl (stereo unspecified) ?
Result block: > 100 µM (inactive)

Query block: What would you report for NC(CCSCC(F)F)C(=O)O (stereo unspecified) ?
Result block: > 100 µM (inactive)

---

Parameter: GI50. Scope: all listed entries.
System: UACC-257
EXPERIMENT DESCRIPTION: NCI tumour cell line growth inhibition, 48 h
Calls of active or inactive are those of the source. Cut-off read from the data, not from the text of the source: active = GI50 up to about 1.1 µM and inactive = higher.

Query block: GI50 of CCCCCCCCCCCCCC(=O)CSCCNC(=O)CCNC(=O)[C@@H](O)C(C)(C)COP(=O)(O)OP(=O)(O)OCC1OC(n2cnc3c(N)ncnc32)C(O)C1OP(=O)(O)O (stereo partly drawn) on UACC-257?
Result block: 18.1 µM (inactive)

Query block: What would you report for COc1ccc(C2C3=C(COC3=O)Oc3cc4c(cc32)OCO4)cc1OC (stereo not drawn) ?
Result block: 6.87 µM (inactive)

Query block: What would you report for CC[N+]1(C)CCC(O)(/C=C/c2ccc(OC)cc2)C(C(=O)/C=C/c2ccc(OC)cc2)C1 (stereo not drawn) ?
Result block: 17.4 µM (inactive)

Query block: What would you report for "Oc1cc(Br)cc2cc(Br)cnc12" ?
Result block: 3.21 µM (inactive)

Query block: What would you report for "CC(=O)OC(=O)O/C=C\CCl" ?
Result block: > 100 µM (inactive)

Continuing:
Query block: GI50 of "N#CC1(C#N)[C@@H]2CCC=C(Sc3ccccc3)[C@@H]21" on UACC-257?
Result block: 17.5 µM (inactive)

Query block: What would you report for "Cn1c2ccccc2c(=O)c2c(O)cc3c(c21)C=CC(C)(C)O3" ?
Result block: > 25 µM (inactive)

Query block: What would you report for COc1ccc2c(c1)CN1C(=N2)CSC1c1ccccc1Cl (stereo not drawn) ?
Result block: 13.4 µM (inactive)

Query block: What would you report for O=C1N2CCN=C2c2ccccc2C1(O)c1ccccc1 (stereo not drawn) ?
Result block: > 100 µM (inactive)

Query block: What would you report for COC(=O)C1=C(C)NC2(C)OC(C)(O)C(C(C)=O)C12C(C)=O (stereo not drawn) ?
Result block: > 100 µM (inactive)

Query block: What would you report for "COC(=O)c1sc2nc(Nc3ccccc3)/c(=N\c3ccccc3)sc2c1C" ?
Result block: > 100 µM (inactive)

---

Parameter: GI50. Scope: all listed entries.
Tested on: Hs-578T
EXPERIMENT DESCRIPTION: NCI tumour cell line growth inhibition, 48 h
Active and inactive are the calls of the source. Rule as the data show it: active = GI50 up to about 1.1 µM and inactive = higher. Residues, ends and D or L forms follow the SMILES beside them. *: point of attachment. Cbz = O=C(OCc1ccccc1)*; Boc = CC(C)(C)OC(=O)*; OSu = O=C1CCC(=O)N1O*; Bn = c1ccc(C*)cc1

Some entries whose results are on file:
Query block: Recorded GI50 for CCOc1cc(C2CC(c3ccc(NS(=O)(=O)c4cc([N+](=O)[O-])ccc4C)cc3)=NN2S(=O)(=O)c2cc([N+](=O)[O-])ccc2C)ccc1O (stereo unspecified) , please?
Result block: 42.4 µM (inactive)

Query block: What would you report for "COc1cccc(/C=N/NC(=O)CSCC(=O)N/N=C/c2cccc(OC)c2OC)c1OC" ?
Result block: 37.7 µM (inactive)

Query block: What would you report for "NS(=O)(=O)c1ccc(NCc2nc3ccccc3[nH]2)cc1" ?
Result block: > 100 µM (inactive)

Continuing:
Query block: Recorded GI50 for "Sc1nn2c(COc3cc(Cl)c(OCc4nnc5sc(S)nn45)cc3Cl)nnc2s1" , please?
Result block: > 100 µM (inactive)

Query block: What would you report for CC(C)(C)OC(=O)NC(Cc1ccc(OCc2ccccc2)cc1)C(=O)NC(CCCCNC(=O)OCc1ccccc1)C(=O)NC(CCCCNC(=O)OCc1ccccc1)C(=O)ON1C(=O)CCC1=O (stereo unspecified) (Boc-Tyr(Bn)-Lys(Cbz)-Lys(Cbz)-OSu; configuration not given here) ?
Result block: 16.4 µM (inactive)

Query block: What would you report for "CC(=O)/C(C)=N/NC(=O)c1ccccc1O" ?
Result block: > 100 µM (inactive)

Query block: What would you report for "CN1C[C@H]2[C@@H](C1=O)[C@H](c1ccccc1)ON2C" ?
Result block: > 100 µM (inactive)

Query block: What would you report for CC(=O)Nc1ccc(C(=O)NN2C(=O)CSC2c2ccc([N+](=O)[O-])cc2)cc1 (stereo unspecified) ?
Result block: > 100 µM (inactive)

Query block: What would you report for CN1[C@@H]2CCCC[C@H]2N(C)P1(=O)C(O)/C=C/c1ccccc1 (stereo partly specified) ?
Result block: > 100 µM (inactive)

Query block: What would you report for CC(NNC(=O)c1cc[n+]([BH2-]C#N)cc1)c1ccc(F)cc1 (stereo unspecified) ?
Result block: > 100 µM (inactive)

Query block: What would you report for "CCOP(=O)(OCC)/C(F)=C/c1ccc(F)cc1" ?
Result block: > 100 µM (inactive)

---

Test system: NCI-H23
EXPERIMENT DESCRIPTION: NCI tumour cell line growth inhibition, 48 h
Active and inactive are the calls of the source. No stated cut-off is given here; in the data, active = GI50 up to about 1.1 µM and inactive = higher.
Parameter: GI50. Scope: all listed entries.

Some entries whose results are on file:
Query block: Recorded GI50 for "O=C(O)c1ccc(Nc2nc3cc(C(F)(F)F)ccc3nc2-c2ccccc2)cc1" , please?
Result block: 19 µM (inactive)

Query block: What would you report for "CCOC(=O)NC(=O)c1cn(C2CCCCC2)c(=O)[nH]c1=O" ?
Result block: > 100 µM (inactive)

Query block: What would you report for O=C1C2C(C(=O)N1OS(=O)(=O)c1ccccc1)N(Cc1ccccc1)C(=O)N2Cc1ccccc1 (stereo not drawn) ?
Result block: > 100 µM (inactive)

Query block: What would you report for Cc1ccc2c(C3Cc4ccccc4N3C(=O)/C=C\C(=O)O)c(C)[nH]c2c1 (stereo not drawn) ?
Result block: 67.9 µM (inactive)

Query block: What would you report for CC(=O)Nc1ccc(C(=O)NN2C(=O)CSC2c2ccc([N+](=O)[O-])cc2)cc1 (stereo not drawn) ?
Result block: > 100 µM (inactive)

Continuing:
Query block: Recorded GI50 for CCN(CC)CC(C(=O)Nc1c(C)cccc1C)/C(C)=N\NC(=S)NN (stereo not drawn) , please?
Result block: > 100 µM (inactive)

Query block: What would you report for "O=C(Nc1ccc(C2=NCCN2)cc1)c1cncc(C(=O)Nc2ccc(C3=NCCN3)cc2)c1" ?
Result block: > 100 µM (inactive)

Query block: What would you report for COC1=C2C=[N+](C)C3C(=C2C=CC1OC)Cc1cc2c(cc13)OCO2 (stereo not drawn) ?
Result block: 13 µM (inactive)

---

Tested on: NCI-H23
EXPERIMENT DESCRIPTION: NCI tumour cell line growth inhibition, 48 h
The source made the active and inactive calls. Cut-off read from the data, not from the text of the source: active = GI50 up to about 1.1 µM and inactive = higher.
Parameter: GI50. Scope: all listed entries.

Some entries whose results are on file:
Query block: Recorded GI50 for "C(=C\c1cccc(/C=C/c2ccccn2)n1)/c1ccccn1" , please?
Result block: 66.5 µM (inactive)

Query block: What would you report for "COc1ccc(CCN2CCc3c(C)c(C#N)c4nc5ccccc5n4c32)cc1OC" ?
Result block: 45.3 µM (inactive)

Query block: What would you report for "O=C1OC(c2ccco2)=N/C1=C\c1cccc([N+](=O)[O-])c1" ?
Result block: > 100 µM (inactive)

Query block: What would you report for "c1c[nH]c(Cc2nc(Cc3c[nH]cn3)c[nH]2)n1" ?
Result block: 34.8 µM (inactive)

Query block: What would you report for CC1(C)COC(C2(C)C(=O)C=C(c3ccccc3)c3ccccc32)=N1 (stereo not drawn) ?
Result block: 47.1 µM (inactive)

Query block: What would you report for C[C@H]1NC(=O)C2CCCCN2C(=O)CN(C)C(=O)CNC(=O)C2CCCCN2C(=O)[C@@H](NC(=O)c2nc3ccccc3cc2O)[C@@H](C)NC(=O)C2CCCCN2C(=O)CN(C)C(=O)CNC(=O)[C@@H]2CCCCN2C(=O)C1NC(=O)c1nc2ccccc2cc1O (stereo partly drawn) ?
Result block: 0.242 µM (active)

Query block: What would you report for CC(C)(C)C1CCP(=O)(c2ccccc2)CC1 (stereo not drawn) ?
Result block: > 100 µM (inactive)

Query block: What would you report for "CCCC(=O)OC[n+]1ccc2c(C)c3[nH]c4ccc(OC)cc4c3c(C)c2c1" ?
Result block: 0.347 µM (active)

Continuing:
Query block: Recorded GI50 for "O=C(N/N=C\c1ccc(Cl)cc1)Nc1ccc2ccccc2c1" , please?
Result block: 76.4 µM (inactive)

Query block: What would you report for CC1CN1c1c(C(=O)/C=C/c2ccccc2)c(-c2ccccc2)nn(C)c1=O (stereo not drawn) ?
Result block: 16.6 µM (inactive)

Query block: What would you report for "COc1ccccc1/N=N/c1c(O)c(S(=O)(=O)O)cc2cc(S(=O)(=O)O)ccc12" ?
Result block: > 100 µM (inactive)

Query block: What would you report for C[N+](C)(C)CC(=O)N/N=C(/CC(=O)CC(C1=C(O)c2ccccc2OC1)c1ccccc1)C(=O)Nc1cccc(Cl)c1 (stereo not drawn) ?
Result block: > 100 µM (inactive)

Query block: What would you report for O=C(CCCCCCCCC(=O)NN1C(=O)/C(=C\c2ccc(O)c(O)c2)SC1c1c(O)ccc2ccccc12)NN1C(=O)C(=Cc2ccc(O)c(O)c2)SC1c1c(O)ccc2ccccc12 (stereo not drawn) ?
Result block: 9.35 µM (inactive)

Query block: What would you report for "Cc1ccc(NC(=O)CCc2nnc3s/c(=C\c4cccc([N+](=O)[O-])c4)c(=O)n23)cc1" ?
Result block: > 100 µM (inactive)

Query block: What would you report for "Cc1nnc2sc(N/N=C/c3ccccc3)nn12" ?
Result block: > 100 µM (inactive)
